- assayProcedure: Cmax in mouse plasma at 0.1 umol/cm'2 administered topically
- testParameters: topical or ocular
metric: Cmax (nM)
Numeric only. Scale: nM

Prompt line: Please look up its Cmax: Cc1cc(Nc2ccc3ccccc3c2)ccc1C(=O)Nc1cn(C(C)C)c(=O)n(C2(C(=O)N[C@H]3CC(=O)OC3O)CC2)c1=O (stereo partly specified)
Response line: 1.3

###

- assayProcedure: Aqueous solubility of the compound in pH 7.4 buffered water after 24 hrs
- Assay type: physicochemical
Known solubility at 24 h of a selection of compounds
Reply with just the number (in µM).

Check out these entries, answers already filled in.
Prompt line: Fill in the blank: the reported solubility at 24 h of CC(C)n1cc(NC(=O)c2ccc(Nc3cnc4ccccc4n3)cc2)c(=O)n(C2(C(=O)N[C@H]3CC(=O)OC3O)CC2)c1=O (stereo not given in full) is ____.
Response line: 87

Prompt line: So what does the record say about solubility at 24 h for CC(C(=O)N[C@H]1CC(=O)OC1O)n1c(=O)c(NC(=O)c2ccc(Nc3cnc4ccccc4n3)cc2)cn(C)c1=O (stereo not given in full) ?
Response line: 96

Prompt line: Fill in: solubility at 24 h of CCC(C(=O)N[C@H]1CC(=O)OC(O)C1)n1c(=O)c(NC(=O)c2ccc(Nc3ccc4ccccc4c3)cc2C)cn(C(C)C)c1=O (stereo not given in full) is ___
Response line: 42

Prompt line: Entry CCC(C(=O)N[C@H]1CC(=O)OC1O)n1c(=O)c(NC(=O)c2ncc(Nc3ccc4ccccc4c3)cc2C)cn(C(C)C)c1=O (stereo not given in full) has what solubility at 24 h?
Response line: 2

Prompt line: For the compound shown here, CC(C)n1cc(NC(=O)c2ccc(Nc3ccc4ccccc4c3)cc2)c(=O)n(CC(=O)N[C@H]2CC(=O)OC2O)c1=O (stereo not given in full) , give the reported solubility at 24 h.
Response line: 52

Others:
Prompt line: # lookup: solubility at 24 h of Cc1cc(Nc2ccc3ccccc3c2)ccc1C(=O)Nc1cn(C(C)C)c(=O)n(C2(C(=O)N[C@H]3CC(=O)OC(O)C3)CC2)c1=O (stereo not given in full)
Response line: 63

Prompt line: Param item = Cc1cc(Nc2ccc3ccccc3c2)ccc1C(=O)Nc1cn(C(C)C)c(=O)n(CC(=O)N[C@H]2CC(=O)OC2O)c1=O (stereo not given in full) ; retrieve measured solubility at 24 h.
Response line: 72

Prompt line: Query (compound): CC(C)n1cc(NC(=O)c2ccc(Nc3ccc4ccccc4c3)cc2)c(=O)n(C2(C(=O)N[C@H]3CC(=O)OC3O)CC2)c1=O (stereo not given in full) ; field requested: solubility at 24 h
Response line: 66

Prompt line: Reported solubility at 24 h, compound CC(C)n1cc(NC(=O)c2ccc(Nc3cnc4ccccc4n3)cc2)c(=O)n(CC(=O)N[C@H]2CC(=O)OC2O)c1=O (stereo not given in full) : ____
Response line: 8.3

Prompt line: Using the record for CC(C)n1cc(NC(=O)c2ccc(Nc3cnc4ccccc4n3)cc2)c(=O)n(C(C)C(=O)N[C@H]2CC(=O)OC2O)c1=O (stereo not given in full) , report its solubility at 24 h.
Response line: 86

Source listed as ChEMBL document CHEMBL4177758.
